- SYSTEM NAME: UniProt:P05121
- ASSAY PROTOCOL: Measurement of PAI-1 inhibitory activity of compound group 1 (t-PA, Spectrozyme t-PA chromogenic substrate)
- EXPERIMENTAL CONDITIONS: read-out: PAI-1 activity %
Item-by-item account of activity at 10 µM
Lab book: enter the figure in %, no units written.

// worked examples, activity at 10 µM included
O=C(/C=C/c1cccc(-c2ccccc2)c1)Nc1ccc(Cl)cc1C(=O)O [Example 89]
0.1
O=C(Nc1ccc(Cl)cc1C(=O)O)c1ccc(C2CCCCC2)cc1 [Example 69]
0.6
C#Cc1ccc(NC(=O)c2ccc(C3CCCCC3)cc2)c(C(=O)O)c1 [Example 95]
0.3
O=C(COc1ccc(-c2ccoc2)cc1)Nc1ccc(Cl)cc1C(=O)O [Example 29]
24.3

Proceeding to the next compound to report its activity at 10 µM.
// query Could you share which activity at 10 µM value was measured for O=C(/C=C/c1cccc(C2=CCCCC2)c1)Nc1ccc(Cl)cc1C(=O)O [Example 90] ?
// result 0.1

###

- SYSTEM NAME: human PAI-1 (Homo sapiens, UniProt P05121)
- Sequence (P05121 24-402): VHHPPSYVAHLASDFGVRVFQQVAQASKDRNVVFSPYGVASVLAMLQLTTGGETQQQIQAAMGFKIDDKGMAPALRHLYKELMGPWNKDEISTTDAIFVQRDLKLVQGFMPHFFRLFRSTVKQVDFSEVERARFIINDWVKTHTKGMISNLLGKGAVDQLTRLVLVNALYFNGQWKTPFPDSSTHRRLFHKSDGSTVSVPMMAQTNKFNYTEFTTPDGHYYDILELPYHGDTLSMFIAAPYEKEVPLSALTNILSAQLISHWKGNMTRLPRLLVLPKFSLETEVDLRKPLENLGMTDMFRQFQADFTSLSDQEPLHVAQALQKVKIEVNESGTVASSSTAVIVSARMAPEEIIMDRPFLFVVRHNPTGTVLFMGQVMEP
- ASSAY PROTOCOL: Measurement of PAI-1 inhibitory activity of compound group 1 (t-PA, Spectrozyme t-PA chromogenic substrate)
- EXPERIMENTAL CONDITIONS: read-out: PAI-1 activity %
Quick rule: activity at 10 µM of at least 20% means T, below that means F.

See these solved cases before continuing.
CC(C)(C)c1ccc(OCC(=O)Nc2ccc(Cl)cc2C(=O)O)cc1 [Example 18]
F
O=C(Nc1ccc(Cl)cc1C(=O)[O-])c1cccc(-c2cccc3cccnc23)c1.[Na+] [Example 68]
F

// query Kindly determine if activity at 10 µM recorded for O=C(CNC(c1ccccc1)c1ccccc1)Nc1ccc(Cl)cc1C(=O)O [Example 73] is above or exactly 20%.
// result T

// query Threshold query (activity at 10 µM >= 20%) on COc1ccccc1-c1cccc(C(=O)Nc2ccc(Cl)cc2C(=O)O)c1 [Example 33]
// result T

// query Can Cc1cccc(-c2ccc(NC(=O)COc3cccc(-c4ccoc4)c3)c(C(=O)O)c2)c1 [Example 27] be said to have activity at 10 µM at or above 20%?
// result F

// query Is reported activity at 10 µM greater than or equal to 20% here: O=C(Nc1ccc(Cl)cc1C(=O)[O-])c1cccc(-c2ccncc2)c1.[Na+] [Example 8]
// result T

// query Textbook exercise: given the entry Cn1c(C(=O)Nc2ccc(Cl)cc2C(=O)O)cc2cc(Br)ccc21 [Example 23] , state whether its activity at 10 µM is greater than or equal to 20%.
// result F

###

- SYSTEM NAME: human PAI-1 (Homo sapiens)
- ASSAY PROTOCOL: Measurement of PAI-1 inhibitory activity of compound group 1 (t-PA, Spectrozyme t-PA chromogenic substrate)
- EXPERIMENTAL CONDITIONS: read-out: PAI-1 activity %
READOUT KIND: activity at 2.5 µM (%)
// return numeric value only (unit: %, not printed)

For orientation, consider the following solved cases.
O=C(Nc1ccc(C2CCCCC2)cc1C(=O)O)c1ccc(C2CCCCC2)cc1 [Example 82]
1.7
O=C(Nc1ccc(Cl)cc1C(=O)O)c1ccc2c(c1)CCCC2 [Known compound (5), reference compound]
98.5
O=C(Nc1ccc(Cl)cc1C(=O)O)c1ccc(-c2ccccc2)o1 [Example 105]
89.9
O=C(Nc1ccc(Cl)cc1C(=O)O)c1ccc(CC23CC4CC(CC(C4)C2)C3)cc1 [Example 96]
23.9
O=C(/C=C/c1cccc(-c2cccc3cccnc23)c1)Nc1ccc(Cl)cc1C(=O)O [Example 101]
24.7
O=C(/C=C/c1cccc(-c2ccccc2)c1)Nc1ccc(Cl)cc1C(=O)O [Example 89]
60.7
O=C(C#Cc1ccc(C23CC4CC(CC(C4)C2)C3)cc1)Nc1ccc(Cl)cc1C(=O)O [Example 94]
3.5

Now, please, on to the next compound.
// query Value lookup for activity at 2.5 µM; key = O=C(Nc1ccc(Cl)cc1C(=O)O)c1ccc(C2=CCOCC2)cc1 [Example 34]
// result 97.1

###

- SYSTEM NAME: human PAI-1 (Homo sapiens)
- ASSAY PROTOCOL: Measurement of PAI-1 inhibitory activity of compound group 1 (t-PA, Spectrozyme t-PA chromogenic substrate)
- EXPERIMENTAL CONDITIONS: read-out: PAI-1 activity %
READOUT KIND: activity at 10 µM (%)
Give the value in % but do not write % after it.

The cases that follow already have their activity at 10 µM on record.
O=C(Nc1ccc(Cl)cc1C(=O)O)c1cc(C(F)(F)F)cc(C(F)(F)F)c1 [Example 43]
14.1
O=C(COc1ccc(C23CC4CC(CC(C4)C2)C3)cc1)Nc1ccc(Cl)cc1C(=O)O [Example 21]
0.3
Cc1cc(C)cc(-c2ccc(OCC(=O)Nc3ccc(Cl)cc3C(=O)O)cc2)c1 [Example 50]
0.1

Switching to the query record.
// query State the recorded activity at 10 µM for this entry: Cn1cc(C(=O)C(=O)Nc2ccc(Cl)cc2C(=O)O)c2cc(-c3ccoc3)ccc21 [Example 14]
// result 4.3

###

- SYSTEM NAME: human PAI-1 (Homo sapiens, UniProt P05121)
- ASSAY PROTOCOL: Measurement of PAI-1 inhibitory activity of compound group 2 (t-PA, S-2288 chromogenic substrate)
- EXPERIMENTAL CONDITIONS: compound 20 μM; PAI-1 activity of the system without compound after 30 minutes taken as 100%
The compounds listed here are annotated with their PAI-1 activity %.
The reply should be a number in %, with the unit left off.

The following compounds have reported results that may help.
O=C(Nc1ccc(Cl)cc1C(=O)[O-])c1cccc(-c2cncc3ccccc23)c1.[Na+]
62.7
O=C(COc1cccc(-c2ccccc2)c1)Nc1ccc(-c2ccccc2)cc1C(=O)O
79.6
O=C(Nc1ccc(Cl)cc1C(=O)[O-])c1cccc(-c2cccc3cccnc23)c1.[Na+]
99.8

// query Which PAI-1 activity % is reported for this compound? O=C(Nc1ccc(Cl)cc1C(=O)[O-])c1cccc(-c2cccc3cnccc23)c1.[Na+]
// result 97.7

// query Dear colleague, I am looking for the recorded PAI-1 activity % of the following compound: O=C(Nc1ccc(Cl)cc1C(=O)[O-])c1cccc(-c2ccc3ncccc3c2)c1.[Na+]
// result 76.9

###

- SYSTEM NAME: human PAI-1 (Homo sapiens)
- ASSAY PROTOCOL: Measurement of PAI-1 inhibitory activity of compound group 2 (t-PA, S-2288 chromogenic substrate)
- EXPERIMENTAL CONDITIONS: compound 50 μM; PAI-1 activity of the system without compound after 30 minutes taken as 100%
READOUT KIND: PAI-1 activity % (%)
Provide the reading as a plain figure in %.

Example compounds with recorded PAI-1 activity %:
O=C(Nc1ccc(Cl)cc1C(=O)[O-])c1cccc(-c2cnc3ccccc3c2)c1.[Na+]
21.4
O=C([O-])c1cc(Cl)ccc1NC(=O)C1CCCN(C(=O)c2cccc(-c3ccoc3)c2)C1.[Na+] (stereo not shown)
99.3

// query Which PAI-1 activity % value belongs to O=C(COc1cccc(-c2ccccc2)c1)Nc1ccc(-c2ccccc2)cc1C(=O)O ?
// result 7.7

// query Look up PAI-1 activity %: O=C(COc1ccc(-c2ccccc2)cc1)Nc1ccc(-c2ccoc2)cc1C(=O)O
// result 8.4

// query Entry under review: O=C(Nc1ccc(Cl)cc1C(=O)[O-])c1cccc(-c2cccc3cccnc23)c1.[Na+] . Reported PAI-1 activity %?
// result 66.3

// query What measured PAI-1 activity % goes with O=C(Nc1ccc(Cl)cc1C(=O)[O-])c1ccc(-c2cccc3cccnc23)cc1.[Na+] ?
// result 75.0

// query Entry under review: O=C(Nc1ccc(Cl)cc1C(=O)[O-])c1cccc(-c2cccc3cnccc23)c1.[Na+] . Reported PAI-1 activity %?
// result 13.1

// query PAI-1 activity % lookup needed for O=C(Nc1ccc(Cl)cc1C(=O)[O-])c1cccc(-c2ccc3ncccc3c2)c1.[Na+] , thanks.
// result 10.8

// query Look up PAI-1 activity %: O=C(Nc1ccc(Cl)cc1C(=O)[O-])c1cccc(-c2cncc3ccccc23)c1.[Na+]
// result 7.5

// query # lookup: PAI-1 activity % of O=C(Nc1ccc(Cl)cc1C(=O)[O-])c1cccc(-c2ccncc2)c1.[Na+]
// result 12.9

###

- SYSTEM NAME: human PAI-1 (Homo sapiens, UniProt P05121)
- ASSAY PROTOCOL: Measurement of PAI-1 inhibitory activity of compound group 1 (t-PA, Spectrozyme t-PA chromogenic substrate)
- EXPERIMENTAL CONDITIONS: read-out: PAI-1 activity %
Kind request: treat 60% as inclusive, so activity at 2.5 µM at 60% or higher is yes, anything lower is no.

// query hey, is activity at 2.5 µM for this one >= 60%? Cc1ccc(C23CC4CC(CC(C(=O)Nc5ccc(Cl)cc5C(=O)O)(C4)C2)C3)cc1
// result yes

// query Textbook exercise: given the entry O=C(Nc1ccc(Cl)cc1C(=O)O)c1cccc(C2=CCCCC2)c1 , state whether its activity at 2.5 µM is greater than or equal to 60%.
// result no

// query Answer whether activity at 2.5 µM of O=C(COc1ccc(-c2ccccc2)cc1)Nc1ccc(Cl)cc1C(=O)O is greater than or equal to 60%.
// result yes

// query Item O=C(O)c1cc(Cl)ccc1NC(=O)C1CCCN(C(=O)c2cccc(-c3ccccc3)c2)C1 (stereo not drawn) with activity at 2.5 µM of 60% or above?
// result yes

// query Could you verify whether the entry O=C(COc1cccc(C2=CCCCC2)c1)Nc1ccc(Cl)cc1C(=O)O shows activity at 2.5 µM of no less than 60%?
// result yes

// query API: above_or_equal(metric=activity at 2.5 µM, cutoff=60%) for item O=C(O)c1cc(Cl)ccc1NC(=O)c1cc(-c2ccccc2)nc2ccccc12
// result yes

// query Does activity at 2.5 µM meet or surpass 60% for O=C(Nc1ccc(Cl)cc1C(=O)O)c1ccc(-c2cccs2)cc1 ?
// result yes

// query API: above_or_equal(metric=activity at 2.5 µM, cutoff=60%) for item O=C(COc1cccc(C23CC4CC(CC(C4)C2)C3)c1)Nc1ccc(Cl)cc1C(=O)O
// result no

// query Check if activity at 2.5 µM >= 60% (inclusive). Item: O=C(Nc1ccc(CCC2CCCCC2)cc1C(=O)O)c1ccc(C2CCCCC2)cc1
// result no

All figures here come from patent US10092537B2.
